Tested on: MDBK line
EXPERIMENTAL DETAILS: MTT Cell Proliferation Assay, MDBK cells
Format: cell-based, bovine
CONDITION CONTEXT: Bos taurus, MDBK, second value of 'a/b (c)'; taken as MDBK cells; read-out: MTT Screen, second value of cell
REPORTED PROPERTY: log10 IC50 (log10 of the value in µM)
Plainly stated, the numbers are log10 of IC50 given in µM.

-- ask log10 IC50 of C=CCN(CC=C)S(=O)(=O)c1ccc(NC(=S)NC(=O)/C=C/c2ccc(OC)cc2)cc1 [AD4-12016] on MDBK line?
-- reply 1.37

Continuing:
-- ask log10 IC50 of CCN(CC)S(=O)(=O)c1ccc(NC(=S)NC(=O)CC(C)C)cc1 [AD4-12049] on MDBK line?
-- reply 1.08

-- ask log10 IC50 of CCC(c1ccccc1)S(=O)(=O)c1ccc(NC(=S)NC(=O)C(C)C)cc1 (centres unmarked) [AD4-12029] on MDBK line?
-- reply 1.71

----------
ASSAYED TARGET: EGFR (Homo sapiens, UniProt P00533)
Construct: host or cells: A431
Sequence (P00533 25-1210): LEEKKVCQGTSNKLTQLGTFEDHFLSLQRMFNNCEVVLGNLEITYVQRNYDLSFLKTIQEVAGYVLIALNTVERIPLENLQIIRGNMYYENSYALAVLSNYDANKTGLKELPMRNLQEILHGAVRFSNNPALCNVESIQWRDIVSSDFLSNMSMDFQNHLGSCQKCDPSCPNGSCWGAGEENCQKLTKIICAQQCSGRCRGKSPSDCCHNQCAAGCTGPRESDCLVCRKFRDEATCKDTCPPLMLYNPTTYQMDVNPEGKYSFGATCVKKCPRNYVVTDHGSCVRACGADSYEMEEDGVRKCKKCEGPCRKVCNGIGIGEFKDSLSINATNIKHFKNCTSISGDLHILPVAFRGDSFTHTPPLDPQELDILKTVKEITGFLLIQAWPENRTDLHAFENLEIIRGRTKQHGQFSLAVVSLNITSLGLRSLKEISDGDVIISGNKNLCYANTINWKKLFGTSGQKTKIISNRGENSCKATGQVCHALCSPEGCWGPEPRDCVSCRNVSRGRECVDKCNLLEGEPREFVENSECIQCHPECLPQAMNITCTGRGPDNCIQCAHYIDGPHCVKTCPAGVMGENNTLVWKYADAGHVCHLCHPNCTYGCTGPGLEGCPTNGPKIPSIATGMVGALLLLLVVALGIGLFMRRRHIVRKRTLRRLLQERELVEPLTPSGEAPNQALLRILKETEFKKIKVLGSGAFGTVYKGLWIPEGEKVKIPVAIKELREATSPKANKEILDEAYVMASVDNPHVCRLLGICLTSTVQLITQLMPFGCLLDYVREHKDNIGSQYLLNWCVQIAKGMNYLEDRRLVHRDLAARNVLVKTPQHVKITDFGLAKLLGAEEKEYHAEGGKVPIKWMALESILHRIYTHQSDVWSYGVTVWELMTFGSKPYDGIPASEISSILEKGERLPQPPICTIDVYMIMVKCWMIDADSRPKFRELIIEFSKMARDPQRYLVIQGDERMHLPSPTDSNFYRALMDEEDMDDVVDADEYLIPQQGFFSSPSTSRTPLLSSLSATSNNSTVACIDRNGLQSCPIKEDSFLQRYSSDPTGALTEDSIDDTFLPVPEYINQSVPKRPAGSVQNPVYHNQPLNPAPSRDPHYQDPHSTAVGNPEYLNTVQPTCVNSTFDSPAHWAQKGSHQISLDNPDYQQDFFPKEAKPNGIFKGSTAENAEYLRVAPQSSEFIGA
EXPERIMENTAL DETAILS: EGFR in-cell Western (ICW) screening protocol (EGFR inhibition assay)
Type: cell-based
Design: unit not given here
CONDITION CONTEXT: ICW assay, average of runs 1 and 2
Where a name gives a salt, the structure may show the parent alone.
// ICW Avg lookup, one value per entry
Please give only the number in your answer, with no unit.

-- ask ICW Avg of Cc1ccc(-c2cc(=O)[nH]c(Nc3nc(C)c4ccc(C)cc4n3)n2)cc1 [12604 + TFA] on EGFR (Homo sapiens, UniProt P00533)?
-- reply 50.98

Continuing:
-- ask ICW Avg of CCCCc1c(C)nc(Nc2nc(C)c3ccccc3n2)[nH]c1=O [12603 + TFA] on EGFR (Homo sapiens, UniProt P00533)?
-- reply 38.61

----------
ASSAYED TARGET: EGFR (Homo sapiens, UniProt P00533)
Construct: host or cells: A431
EXPERIMENTAL DETAILS: EGFR in-cell Western (ICW) screening protocol (EGFR inhibition assay)
Type: cell-based
Parameters: unit not given here
CONDITION CONTEXT: ICW assay, run 1
Protocol: The following example describes general EGFR in-cell Western (ICW) screening protocol. Methods are according to Chen et al. (2005) Analytical Biochemistry 338, 136-142 (incorporated herein by reference), except as otherwise noted. Cell Plates: A431 cells (ATCC # CRL-1555) were grown in Dulbecco's Modified Eagle Medium (DMEM; ATCC #30-2002) supplemented with 10% fetal bovine serum, 105 units/ml pen/strep (Invitrogen #15140155) and 2.1 mM L-glutamine (ATCC #30-2214). […]
Structures can show the parent of a compound that is named as a salt.
REPORTED PROPERTY: ICW 1
Please give only the number in your answer, with no unit.

The cases that follow already have their ICW 1 on record.
-- ask Could you tell me which ICW 1 is on file for Cc1nc(Nc2nc(CCC(C)C)cc(=O)[nH]2)nc2ccccc12 ?
-- reply 28.62

-- ask Could you tell me which ICW 1 is on file for COc1cccc2c(C)nc(Nc3nc(-c4ccc(F)cc4)cc(=O)[nH]3)nc12 [compound 12778] ?
-- reply 31.05

Continuing:
-- ask Could you tell me which ICW 1 is on file for FC(F)(F)c1cc(C(F)(F)F)nc(Nc2nc(-c3ccccc3)c3cc(Cl)ccc3n2)n1 ?
-- reply 48.00

-- ask Could you tell me which ICW 1 is on file for Cc1cc(C)c2nc(Nc3nc(C)cc(=O)[nH]3)nc(C)c2c1 [11607 + TFA] ?
-- reply 43.69

-- ask Could you tell me which ICW 1 is on file for C=CCc1c(C)nc(Nc2nc(C)c3cccc(C)c3n2)[nH]c1=O [12607 + TFA] ?
-- reply 38.40
